Method Summary: Oral bioavailability in rat at 10 mg/kg
Assay type: ADME, organism-based
Condition Context: in vivo
Metric: bioavailability (%)
Numbers only, in %.

Cc1n[nH]c(C(=O)O)c1Cc1cccc(-c2ccc(F)cc2)c1 :: 38

// switching to the query compound
Qu. I am curious: what bioavailability value has been reported for Cc1[nH]nc(C(=O)O)c1Cc1cc2ccccc2s1 ?
Ans. 53

Value source: ChEMBL document CHEMBL2021770
